Reference source for all entries: ChEMBL document CHEMBL1130122

# tested.on: Cytosolic phospholipase A2 (Bos taurus)
# Sequence (A4IFJ5 whole entry): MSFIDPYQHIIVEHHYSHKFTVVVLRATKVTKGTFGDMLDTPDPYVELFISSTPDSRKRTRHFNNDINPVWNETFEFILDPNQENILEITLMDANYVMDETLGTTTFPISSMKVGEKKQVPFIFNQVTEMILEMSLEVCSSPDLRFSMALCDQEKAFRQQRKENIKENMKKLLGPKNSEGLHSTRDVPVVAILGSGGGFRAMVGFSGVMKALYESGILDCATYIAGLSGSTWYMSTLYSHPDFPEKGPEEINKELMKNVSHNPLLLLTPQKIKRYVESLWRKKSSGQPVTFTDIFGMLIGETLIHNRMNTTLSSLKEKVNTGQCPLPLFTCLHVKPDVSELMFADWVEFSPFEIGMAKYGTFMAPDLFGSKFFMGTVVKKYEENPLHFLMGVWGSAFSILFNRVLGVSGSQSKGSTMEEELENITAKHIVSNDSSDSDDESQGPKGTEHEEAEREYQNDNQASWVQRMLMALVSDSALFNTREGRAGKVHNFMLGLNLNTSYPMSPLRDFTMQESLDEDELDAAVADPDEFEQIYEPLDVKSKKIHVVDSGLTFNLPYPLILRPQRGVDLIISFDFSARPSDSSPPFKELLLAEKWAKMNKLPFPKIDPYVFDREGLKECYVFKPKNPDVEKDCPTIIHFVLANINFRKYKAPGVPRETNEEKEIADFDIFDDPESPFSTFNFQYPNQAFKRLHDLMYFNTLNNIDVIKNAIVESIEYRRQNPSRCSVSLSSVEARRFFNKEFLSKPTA
# measurement.notes: Inhibitory activity against cPLA2 (cytosolic Phospholipase A2) by measuring the calcium ionophore A-23,187-induced arachidonic acid release from bovine platelets
Would you kindly list IC50 for each of these compounds?

Data request: What value of measured IC50 is listed for CCCCCCCC(=O)c1c(C(=O)O)n(C)c2ccccc12 ?
Data returned: > 33 µM

Data request: What value of measured IC50 is listed for CCCCCCCCCCCCCCCCCC(=O)c1c(C(=O)O)n(CCCCCCC)c2ccccc12 ?
Data returned: > 10 µM

Data request: What value of measured IC50 is listed for CCCCCCCCCCCCCCCCCC(=O)c1c(CC(=O)O)n(C)c2ccccc12 ?
Data returned: > 33 µM
